target: HLA-A*02:03; experiment: IEDB peptide-MHC binding, purified MHC/competitive/radioactivity; filed as Kd, often an IC50 or EC50 that approximates it; bounds were set here for any values at or beyond the usual limits of such assays; conditions: source organism: Lassa virus Josiah
pKd: −log10 of the molar value.
parameter_measured: pKd

# sequence_data, system_under_test, reported
records = [
    ("ALMDCIMFDA", "HLA-A*02:03", 8.02),
]

====

molecular target: HLA-B*40:13; assay: IEDB peptide-MHC binding, purified MHC/competitive/fluorescence; filed as Kd, often an IC50 or EC50 that approximates it; bounds were set here for any values at or beyond the usual limits of such assays; settings: source organism: Yersinia pestis Nepal516
pKd: −log10 of the molar value.
parameter_measured: pKd

# sequence_data, parameter_measured, reported
measured = [
    ("MMMSTAVAF", "pKd", 6.44),
]

====

biological target: HLA-B*15:02; assay: IEDB peptide-MHC binding, purified MHC/direct/fluorescence; filed as Kd, often an IC50 or EC50 that approximates it; bounds were set here for any values at or beyond the usual limits of such assays; conditions: source organism: dengue virus type 3

# sequence_data, system_under_test, Kd
measured = [
    ("KQIANELNY", "HLA-B*15:02", "≥ 20 µM"),
]

====

target: HLA-B*27:03; assay: IEDB peptide-MHC binding, purified MHC/direct/fluorescence; filed as Kd, often an IC50 or EC50 that approximates it; bounds were set here for any values at or beyond the usual limits of such assays; details: source organism: Giardia lamblia ATCC 50803
parameter_measured: Kd

# sequence_data, parameter_measured, reported
measured = [
    ("MHDPHSIPL", "Kd", "≥ 20 µM"),
]

====

target: HLA-A*33:01; assay: IEDB peptide-MHC binding, purified MHC/competitive/radioactivity; filed as Kd, often an IC50 or EC50 that approximates it; bounds were set here for any values at or beyond the usual limits of such assays; details: source organism: Dengue virus 1 Brazil/97-11/1997
pKd: −log10 of the molar value.

# sequence_data, pKd
data = [
    ("QMWQLMYFHR", 9.40),
    ("NMTSRMLLNR", 7.13),
    ("DISEMGANFR", 6.64),
    ("ETTKHAVSR", 7.97),
]

====

biological target: HLA-A*02:01; assay: IEDB peptide-MHC binding, purified MHC/direct/fluorescence; filed as Kd, often an IC50 or EC50 that approximates it; bounds were set here for any values at or beyond the usual limits of such assays; conditions: source organism: SARS-CoV1
parameter_measured: Kd

# sequence_data, parameter_measured, reported
rows = [
    ("KLFIRQEEV", "Kd", "400 nM"),
]

====

target: HLA-A*02:19; assay: IEDB peptide-MHC binding, purified MHC/competitive/fluorescence; filed as Kd, often an IC50 or EC50 that approximates it; bounds were set here for any values at or beyond the usual limits of such assays; conditions: source organism: Burkholderia orbicola
parameter_measured: Kd

# sequence_data, system_under_test, reported
data = [
    ("RIEQLYPFA", "HLA-A*02:19", "≥ 20 µM"),
]

====

pKd listing for selected sequences.
biological target: HLA-B*44:03; assay: IEDB peptide-MHC binding, purified MHC/competitive/radioactivity; filed as Kd, often an IC50 or EC50 that approximates it; bounds were set here for any values at or beyond the usual limits of such assays; conditions: source organism: Dengue virus 4 Philippines/H241/1956
pKd: −log10 of the molar value.

# sequence_data, pKd
rows = [
    ("AEYTNSVTNI", 7.29),
    ("MEFIDGISL", 7.28),
]
